System: Mycobacterium tuberculosis
Experiment: Antimicrobial activity against Mycobacterium tuberculosis H37Rv ATCC 27294 at 6.25 ug/ml after 24 hrs by Microplate Almar blue assay
Type: functional
Details: H37Rv ATCC 27294, 24 h
Listed next: entries and their corresponding inhibition at 6.25 µg/mL.
Give the value in % but do not write % after it.

The cases that follow already have their inhibition at 6.25 µg/mL on record.
O=C(N/N=C/c1ccccc1)c1ccncc1 [N'-BENZYLIDENE ISONICOTINOHYDRAZIDE] : 51
CC(=O)OC(O/C(C)=N/NC(=O)c1cc(/C=C\c2ccco2)on1)c1ccc([N+](=O)[O-])o1 (centres undefined) : 59
C/C(=N/NC(=O)c1cc(/C=C\c2ccco2)on1)c1ccc([N+](=O)[O-])cc1 : 66

Exam item: Quick one: inhibition at 6.25 µg/mL for "O=C(N/N=C/c1ccc([N+](=O)[O-])cc1)c1cc(/C=C\c2ccco2)on1" ?
Marked response: 37

Exam item: Quick one: inhibition at 6.25 µg/mL for CC(=O)OC(O/C(C)=N/NC(=O)c1ccncc1)c1ccc([N+](=O)[O-])o1 (centres undefined) ?
Marked response: 84

Exam item: Quick one: inhibition at 6.25 µg/mL for "O=C(NN/C=C/c1ccccc1)c1cc(/C=C\c2ccco2)on1" ?
Marked response: 80

Exam item: Quick one: inhibition at 6.25 µg/mL for "O=C(N/N=C/c1ccc([N+](=O)[O-])cc1)c1ccco1" ?
Marked response: 35

Exam item: Quick one: inhibition at 6.25 µg/mL for "C/C(=N\NC(=O)c1ccncc1)c1ccc([N+](=O)[O-])cc1" ?
Marked response: 99

Exam item: Quick one: inhibition at 6.25 µg/mL for "O=C1Nc2ccccc2/C1=N\NC(=O)c1cccnc1" ?
Marked response: 57

Exam item: Quick one: inhibition at 6.25 µg/mL for "O=C1Nc2ccccc2/C1=N\NC(=O)c1ccco1" ?
Marked response: 41
